Where do these numbers come from? They come from paper PMC5540273.

- Test system: PRKCH
- recorded conditions: concentration: 1 μM, replicates: in singlicate; n = 1;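 note: KINOMEscan kinase panel screen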
For each entry below, report its %Inh value.
Quick reminder: number only, in %, skip the unit.

Kindly note the recorded %Inh for CCCCc1nn2ncccc2c1-c1ccnc(NC2CC2)n1 , which is 0

Kindly note the recorded %Inh for COc1ccc(CSc2nnc(-c3ccc4c(c3)CCO4)o2)cc1 , which is 0

Kindly note the recorded %Inh for Cc1ccc(NC(=O)Nc2ccccc2)cc1-c1ccc(C(=O)Nc2ccncc2)cc1 , which is 11

Kindly note the recorded %Inh for CNc1nc(-c2ccc3c(N)n[nH]c3c2)cc(N2C[C@@H](C(=O)NC3CCCCC3)OC[C@H]2C)n1 , which is 23

Kindly note the recorded %Inh for CC[C@@H]1CO[C@H](C(=O)Nc2ccccc2)CN1c1cc(-c2ccc3c(N)n[nH]c3c2)nc(NC)n1 , which is 6

Kindly note the recorded %Inh for O=C1NC(=O)C(c2ccc(Cl)cc2)=C1Nc1ccc(O)cc1 , which is 0

Kindly note the recorded %Inh for CNc1cc(-c2ccc3c(N)n[nH]c3c2)nc(N)n1 , which is 0

Kindly note the recorded %Inh for Fc1ccc(-c2nn3cccc(F)c3c2-c2ccncc2)cc1 , which is 42

Kindly note the recorded %Inh for O=C1NC(=O)C(c2ccc(Cl)cc2)=C1Nc1cccc(Cl)c1 , which is 0

###

- Tested on: CDK5
- recorded conditions: concentration: 1 μM, replicates: in singlicate; n = 1
For each entry below, report its %Inh value.
Quick reminder: number only, in %, skip the unit.

Kindly note the recorded %Inh for Fc1ccc(-c2nn3cccc(F)c3c2-c2ccncc2)cc1 , which is 17

Kindly note the recorded %Inh for O=C(Nc1n[nH]c2cc(-c3ccsc3)ccc12)C1CC1 , which is 14

Kindly note the recorded %Inh for O=C1NC(=O)C(c2ccc(Cl)cc2)=C1Nc1ccc(O)cc1 , which is 0

Kindly note the recorded %Inh for Cc1ccc(NC(=O)c2ccc(Cl)cc2)cc1-c1ccc(C(=O)Nc2ccncc2)cc1 , which is 0

Kindly note the recorded %Inh for COc1cccc(NC(=O)Nc2ccc(C)c(-c3ccc(C(=O)Nc4ccncc4)cc3)c2)c1 , which is 0

###

For each entry below, report its %Inh value.
- Tested on: MYLK4
- recorded conditions: concentration: 1 μM, replicates: in singlicate; n = 1
Quick reminder: number only, in %, skip the unit.

Kindly note the recorded %Inh for COc1ccc(Nc2nccc(NCCNC(=O)Nc3cc(C)ccc3C)n2)cc1 [GSK1379899] , which is 0

Kindly note the recorded %Inh for FC(F)(F)c1ccccc1-c1cc(-c2c[nH]nc2-c2ccccn2)ccn1 [GW679396] , which is 0

Kindly note the recorded %Inh for Fc1ccc(-c2nc3n(c2-c2ccncc2)CCS3)cc1 [GI98581] , which is 0

Kindly note the recorded %Inh for CCn1c(-c2c(N)noc2C)nc2cnccc21 [SB-737856] , which is 9

Kindly note the recorded %Inh for Cc1cccc2c(-c3ccncn3)c(-c3ccc(F)cc3)nn12 [GW515532] , which is 0

Kindly note the recorded %Inh for Cc1ccc(NC(=O)Nc2ccc(Cl)cc2)cc1-c1ccc(C(=O)Nc2ccncc2)cc1 [GSK1398472] , which is 0

Kindly note the recorded %Inh for Cc1ccccc1Cn1ccn2c(=O)cc(N3CCOCC3)nc12 [GSK2269905] , which is 0

Kindly note the recorded %Inh for CS(=O)(=O)CCNCc1nc(-c2ccc3ncnc(Nc4ccc5c(cnn5Cc5ccccc5)c4)c3c2)cs1.Cl.Cl [GW569716] , which is 10

Kindly note the recorded %Inh for Cc1ccc(-c2nc(Nc3ccncc3)c3ccccc3n2)s1 [GSK189015] , which is 7

Kindly note the recorded %Inh for CNc1cc(-c2ccc3c(N)n[nH]c3c2)nc(N)n1 [GSK2224810] , which is 56
